A collection of variants and their measured protein stability index
B1: C8orf76 (parent)
chain: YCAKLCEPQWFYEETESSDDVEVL

variants of: B1; experiment: protein stability index of a GFP-peptide fusion (GPS, HEK-293T) (PSI 1-6); higher = more stable; details: c terminus: a fixed tail appended;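 note: lentivirally expressed fusions sorted by FACS into six bins by GFP to DsRed ratio, PSI derived from sequencing read proportions per bin multiplied by bin number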

Worked examples follow.
W10E	3.98
C6W	1.77
D19A	2.15
S18N	2.33
A3R	1.75
L24P	2.69
Y1L	3.71
T15P	2.84
A3N	2.74
F11W	2.63

Which protein stability index value is on record for "V21R" ?
2.27

Which protein stability index value is on record for "E22P" ?
2.33

Which protein stability index value is on record for "D20R" ?
1.5

Which protein stability index value is on record for "Y1N" ?
5.01

Which protein stability index value is on record for "W10K" ?
4.15

Which protein stability index value is on record for "L24W" ?
1.85

Which protein stability index value is on record for "E14M" ?
2.78

Which protein stability index value is on record for "T15M" ?
1.91

Which protein stability index value is on record for "K4L" ?
2.71

Which protein stability index value is on record for "E16S" ?
1.74

Which protein stability index value is on record for "D20M" ?
2.02

Which protein stability index value is on record for "W10M" ?
3.51

Where do the numbers come from? From the supplement of paper PMC10567573.
